# Test system: HCC-78
# Assay Explanation: relative viability (nuclei count vs DMSO), 5 days (fraction); higher = more cells survive
# Run Conditions: first compound 0.08 µM
# relative viability per entry
Answer field: number only, no words.

Oc1nc(-c2ccc(C(F)(F)F)cc2)nc2c1CSCC2 [XAV939] + Cc1nc(Nc2ncc(C(=O)Nc3c(C)cccc3Cl)s2)cc(N2CCN(CCO)CC2)n1 [Dasatinib] (partner 0.075 µM) :: 0.37

Query :: // fetch HCC-78 relative viability for Oc1nc(-c2ccc(C(F)(F)F)cc2)nc2c1CSCC2 [XAV939] + NC(=O)Nc1cc(-c2cccc(F)c2)sc1C(=O)N[C@H]1CCCNC1 [AZD7762] (partner 0.2 µM)
Result :: 0.595

Query :: Reported relative viability for HCC-78, given C=C1C(=O)O[C@@H](CCCCCCCC)[C@@H]1C(=O)O [C-75] + Cc1cc(Nc2cc(N3CCN(C)CC3)nc(Sc3ccc(NC(=O)C4CC4)cc3)n2)n[nH]1 [Tozasertib] (partner 0.1 µM) ?
Result :: 0.431
